# System: NCI-H460 lung
# measurementDescription: NCI-60 one-dose screen, 48 h (100 = growth as untreated, 0 = no growth, -100 = all killed)
# assaySetup: 10 µM unless noted
The panel holds about 83,000 compounds, 20% with a hit somewhere; the sample as a whole holds those more often.
This section presents compounds with their documented growth values.
Give the quantity in %, number only.

Task: For CCOC(=O)C1=C(c2ccccc2)N=C2SC=C(c3cccc([N+](=O)[O-])c3)N2C1c1ccc(O)cc1 (stereo not given) , what is its reported growth?
Result: 101

----------
This section presents compounds with their documented growth values.
# System: HT29 colon
# measurementDescription: NCI-60 one-dose screen, 48 h (100 = growth as untreated, 0 = no growth, -100 = all killed)
# assaySetup: 10 µM unless noted
This is part of a sample that, as a whole, favours compounds with a hit. Of some 83,000 tested, about 20% had one in any assay. Activity calls are given as the source filed them. Rule for the calls: active = growth percent below 10; inactive = the rest.

recordsmiles=Brc1ccc(-c2nn(-c3ccccc3)cc2-c2nn[nH]n2)s1 metric=growth measured="117% (inactive)"
recordsmiles=Cc1c(-c2cnc3ccc(Cl)cc3c2C(=O)O)nnn1-c1ccc(Cl)cc1 metric=growth measured="101% (inactive)"

Now for a further compound.
Task: Query the reported growth for HT29 colon; item: O=C1c2ccccc2-c2c1c1ccncc1c(=O)n2CCCn1ccnc1
Result: 21% (inactive)

----------
# System: SR leukemia
# measurementDescription: NCI-60 one-dose screen, 48 h (100 = growth as untreated, 0 = no growth, -100 = all killed)
# assaySetup: 10 µM unless noted
About 83,000 compounds went through this panel and 20% of them were active in at least one assay; those are over-represented in the sample as a whole.
metric: growth (%)
Give the quantity in %, number only.

Recorded growth, per entry:
molecule=O=C(Nc1ccccc1C(F)(F)F)C1=NCCCCN1 metric=growth unitslabel=% measured=102
molecule=COc1cc(-c2ccc(-c3ccc(C(=N)N)s3)s2)cc(OC)c1OC metric=growth unitslabel=% measured=-20.7
molecule=CC(C)=CC(=O)C1C(=O)c2ccccc2C1=O metric=growth unitslabel=% measured=91.3
molecule=COc1ccc(NC(=O)c2ccc(Cl)cc2Cl)cc1 metric=growth unitslabel=% measured=98.2
molecule="CN(Cc1ccccc1)c1nc(Cl)c(C2CC(c3ccc(Cl)cc3)=NN2c2cc(Cl)cc(Cl)c2)s1 (stereo unspecified)" metric=growth unitslabel=% measured=109
molecule=CC/C(=C(/c1ccc(Cl)cc1)c1ccc(OCCN(CC)CC)cc1)c1ccc(OC)cc1 metric=growth unitslabel=% measured=-26
molecule=Cn1nc(-c2ccc(Cl)cc2)nc2c(=O)n(C)c(=O)nc1-2 metric=growth unitslabel=% measured=-40.5
molecule=CCOC(=O)CCC(=O)P(=O)(O)O metric=growth unitslabel=% measured=4.41

Task: For Cc1cccc(CN(Nc2ccccc2)c2ccccc2)n1 , what is its reported growth?
Result: 93

Task: For O=C1OCC2=C1C(c1cccc(F)c1)c1cc3c(cc1N2CCO)CCC3 (stereo unspecified) , what is its reported growth?
Result: 12.3

Task: For CCOC(=O)c1c(N)sc2cc(O)ccc12 , what is its reported growth?
Result: 93

----------
# Tested on: 786-0 renal
# measurementDescription: NCI-60 one-dose screen, 48 h (100 = growth as untreated, 0 = no growth, -100 = all killed)
# assaySetup: 10 µM unless noted
# Method: Cells are grown in 96 well plates and exposed to the test compound for 48 hours. Compounds are tested at a single concentration, which is 10^-5 M for most compounds. The reported endpoint is percent growth (GI% or GIPRCNT), where numbers from 0 - 100% represent growth inhibition, and numbers from -100% - 0 represent cell death. For example, a value of 40 represents 60% growth inhibition. A value of 0 means no net growth occurred over the course of the experiment. […]
About 83,000 compounds went through this panel and 20% of them were active in at least one assay; those are over-represented in the sample as a whole.
This section presents molecules with their documented growth values.
Give the quantity in %, number only.

molecule="CCN1C(=O)N(CC)C2C1NC(=S)N2/N=C/C=C/c1cccs1 (stereo not drawn)" metric=growth unitslabel=% measured=43.1

Task: Query the reported growth for 786-0 renal; item: C#CCOc1ccc(C2=NN(C)C3N=C(Cl)c4ncn(C)c4N23)cc1OCC#C (stereo not drawn)
Result: 105

Task: Query the reported growth for 786-0 renal; item: CCN1C(=O)N(CC)C2C1NN=c1s/c(=C\c3ccccc3)c(=O)n12 (stereo not drawn)
Result: 25.1

Task: Query the reported growth for 786-0 renal; item: c1ccc(-c2cn3nc(-c4c[nH]c5ccccc45)sc3n2)cc1
Result: 102

Task: Query the reported growth for 786-0 renal; item: Clc1ccc(C2=Nn3c(nnc3-c3cc(Cl)cc(Cl)c3Cl)SC2)cc1
Result: 3.83

Task: Query the reported growth for 786-0 renal; item: CCOC(=O)C#Cc1c(CC(=O)OCC)nnn1[C@H]1O[C@@H](CO)[C@@H]2OC(C)(C)O[C@@H]21
Result: 83.9

Task: Query the reported growth for 786-0 renal; item: Cc1nc2ccccc2c(/C=C/c2ccc(Cl)cc2)c1C(=O)/C=C/c1ccccc1
Result: 7.29

Task: Query the reported growth for 786-0 renal; item: CCCS(=O)(=O)Nc1cccc(Nc2ncnc3cc(NC(=O)CCl)ccc23)c1Cl
Result: -88.2

Task: Query the reported growth for 786-0 renal; item: O=C(NCCN1CCOCC1)c1cncnc1Nc1ccc2c(ccn2Cc2ccccn2)c1
Result: 98.5

----------
# System: NCI-H226 lung
# measurementDescription: NCI-60 one-dose screen, 48 h (100 = growth as untreated, 0 = no growth, -100 = all killed)
# assaySetup: 10 µM unless noted
The panel holds about 83,000 compounds, 20% with a hit somewhere; the sample as a whole holds those more often.
Friendly reminder: growth below 90% is Condition met, at or above is Condition not met.

// known answers, use as guide
compound=C=C(C)[C@@H]1CC[C@]2(C#N)CC[C@]3(C)[C@H](CC[C@@H]4[C@@]5(C)CCCNC(C)(C)[C@@H]5CC[C@]43C)[C@@H]12 assignedlabel="Condition not met"
compound=CC(=O)/C(Br)=C/c1ccc(Br)o1 assignedlabel="Condition met"
compound=COc1cc2ncnc(Nc3ccc(S(=O)(=O)Nc4cc(C)on4)cc3)c2cc1OCCCN1CCOCC1 assignedlabel="Condition not met"

Task: # TODO verify growth < 90% strictly for this compound: CCN(CC)CCCC(Nc1c2ccc(Cl)cc2nc2ccc(OC)cc12)c1ccncc1 (centres undefined)
Result: Condition not met

Task: # TODO verify growth < 90% strictly for this compound: COc1cc2c(c(OC)c1OC)C(=O)CC(c1cccc(C(=O)Nc3ccc(Br)cc3)c1)O2 (centres undefined)
Result: Condition met

Task: # TODO verify growth < 90% strictly for this compound: Clc1nc(N2CCC[N+]3(CC2)CC[N+]2(CCCNCC2)CC3)nc(N2CCC[N+]3(CC2)CC[N+]2(CCCNCC2)CC3)n1 (centres undefined)
Result: Condition met

----------
# Test system: HS 578T breast
# measurementDescription: NCI-60 one-dose screen, 48 h
# assaySetup: 10 µM unless noted
About 83,000 compounds went through this panel and 20% of them were active in at least one assay; those are over-represented in the sample as a whole. The source made the active and inactive calls. The calls were made as follows: active = growth percent below 10; inactive = the rest.
Your response should consist of one outcome taken from class 1 for active, class 0 for inactive

// known answers, use as guide
molecule=CCCNNC(=O)c1ccc(CNC(=O)/C=C/c2ccccc2)cc1 targetorsystem="HS 578T breast" assignedlabel="class 0"
molecule="O=C(OCC(O)(CO)C(=O)NC12CC3CC(CC(C3)C1)C2)c1ccc(Cl)cc1 (centres undefined)" targetorsystem="HS 578T breast" assignedlabel="class 0"
molecule="Clc1nc(N2CCC[N+]3(CC2)CC[N+]2(CCCNCC2)CC3)nc(N2CCC[N+]3(CC2)CC[N+]2(CCCNCC2)CC3)n1 (centres undefined)" targetorsystem="HS 578T breast" assignedlabel="class 0"
molecule=O=C(Nc1ccccc1)Nc1ccccc1CNc1nc(Nc2ccc(OCCN3CCCC3)cc2)ncc1Cl targetorsystem="HS 578T breast" assignedlabel="class 0"
molecule=CCCS(=O)(=O)Nc1cccc(Nc2ncnc3cc(NC(=O)CCl)ccc23)c1Cl targetorsystem="HS 578T breast" assignedlabel="class 0"

Task: # fetch the recorded call for Cc1ccc(S(=O)(=O)N(CCC(=O)O)c2ccccc2)cc1 here
Result: class 0

Task: # fetch the recorded call for c1ccc2c(-c3cnn4cc(-c5ccc(N6CCNCC6)cc5)cnc34)ccnc2c1 here
Result: class 1

Task: # fetch the recorded call for CCOC(=O)c1cnc2sc(-c3ccc(OC)cc3)nc2c1Cl here
Result: class 0

Task: # fetch the recorded call for COc1ccc(NC(=O)c2ccc(Cl)cc2Cl)cc1 here
Result: class 0

Task: # fetch the recorded call for O=C(/C=C/c1ccc([N+](=O)[O-])cc1)c1cccc(Nc2nc(Nc3ccccc3)nc(Nc3ccccc3)n2)c1 here
Result: class 0

Task: # fetch the recorded call for Cc1ccc(C2(C)NC(=O)N(CC(=O)Nc3cccc(C)c3)C2=O)cc1 (centres undefined) here
Result: class 0

Task: # fetch the recorded call for CC1(C)CCC[C@]23C(=O)O[C@](O)(C(=O)C4=C[C@@](C)(/C=C/CCCc5ccc6ccc7cccc8ccc5c6c78)CC[C@@]42O)[C@@H]13 here
Result: class 1

Task: # fetch the recorded call for Cc1oc2ccc(O)c(CN3CCCCCC3)c2c1C(=O)Nc1ccc(C(F)(F)F)cc1 here
Result: class 0

Task: # fetch the recorded call for CC1=C2[C@@H](CC1)[C@]1(C)O[C@@](C(C)C)(C[C@H]1OC(=O)CO)[C@H]2OC(=O)CCCc1ccccc1 here
Result: class 1

Task: # fetch the recorded call for COc1ccc(-c2ccc(-c3ccc(C(=N)N)o3)o2)cc1 here
Result: class 0

Task: # fetch the recorded call for C=CN(C(=O)N1CCN(c2cc3c(cc2F)c(=O)c(C(=O)O)cn3C2CC2)CC1)c1nc(-c2ccc(C)cc2)cs1 here
Result: class 0

Task: # fetch the recorded call for CCCCC#Cc1c(I)n(C2OC(CO[Si](C)(C)C(C)(C)C)C3OC(C)(C)OC32)c(=O)[nH]c1=O (centres undefined) here
Result: class 0

Task: # fetch the recorded call for CNC(=O)c1cc(Oc2ccc3nc(NC(=O)Nc4ccc(F)cc4F)sc3c2)ccn1 here
Result: class 0

Task: # fetch the recorded call for COc1cccc2cc(N(C)c3nc(C)nc4c3CCC4)ccc12 here
Result: class 0

Data origin, for the record: PubChem BioAssay (NCI)
